test-name: in vivo
condition-summary: both, cynomolgus monkey, po, 10 mg/kg
measured-property: AUC(0-t) (µg·h/mL)
Numbers only, in µg·h/mL.

IN: Query AUC(0-t) for O=C(NN1C(=O)C2C3C=CC(C4CC34)C2C1=O)c1ccc(C(F)(F)F)cc1 (stereo not shown)
OUT: 10.3

* * *

test-name: in vivo
condition-summary: female, BALB/c, mouse, po, 100 mg/kg, Cmax
measured-property: Cmax

IN: Query Cmax for O=C(NN1C(=O)C2C3C=CC(C4CC34)C2C1=O)c1ccc(C(F)(F)F)cc1 (stereo not shown) [ST-246]
OUT: 43800 ng/mL

* * *

test-name: in vivo
condition-summary: both, New Zealand White, rabbit, iv, 60 mg/kg, mean Cmax
measured-property: Cmax (µg/mL)
One number for each entry, in µg/mL.

IN: Query Cmax for O=C(NN1C(=O)C2C3C=CC(C4CC34)C2C1=O)c1ccc(C(F)(F)F)cc1 (stereo not shown)
OUT: 94.1
